Below is a list of entries, each paired with its recorded pKd value.
Target: LC3 (as used in surface plasmon resonance) (human, UniProt Q9H492 1-120)
Assay: surface plasmon resonance
pKd: −log10 of the molar value. Bridge positions count the residues as written; N and C are the ends. Square brackets hold non-standard residues; d marks the D form. Primed or numbered codes have the meaning given here. Ends that are not written are not given here. DSG″ = disuccinimidyl glutarate, a bis-NHS cross-linker that leaves a glutaryl bridge between two amines; DSG = disuccinimidyl glutarate; NMeA = CN[C@@H](C)C(=O)O
metric-name: pKd

| binder | metric-name | reported-value |
| --- | --- | --- |
| MWPHRVTA[NMeA]K (bridge N-10 via DSG, Phenylalanine-to-tryptophan variant of SUPR 4B at position 2) [SUPR 4B1W] | pKd | 4.52 |
| MFPHRVTA[NMeA]K (bridge N-10 via DSG″, It is kept apart from the mRNA-peptide fusion m1; also called Clone 4B) [SUPR 4B (synthesized cyclic peptide)] | pKd | 3.54 |
